// provenance: paper PMC8899820

Reported Cmax is given for each of the following molecules.
# METHOD: Plasma pharmacokinetics of RPM constituents after oral RPM extract
# STUDY_CONDITIONS: Sprague-Dawley, rat, plasma, po, 6 g/kg
API: value field is a number in nM; no unit string.

Recorded Cmax, per entry:
INSERT INTO assay_data (molecule, test_result) VALUES
  ('COc1cc(O[C@@H]2O[C@H](CO)[C@@H](O)[C@H](O)[C@H]2O)c2c(O)c(C(C)=O)c(C)cc2c1 [TG, torachrysone-8-O-glucoside]', 12.4),
  ('COc1cc(O)cc2c1C(=O)c1c(O)cc(CO)cc1C2=O [Questinol, questinol]', 1.09),
  ('OC[C@H]1O[C@@H](Oc2c(O)cc(O)cc2/C=C/c2ccc(O)cc2)[C@H](O)[C@@H](O)[C@@H]1O [TSG]', 1670),
  ('Cc1cc(O)c2c(c1)C(=O)c1cccc(O)c1C2=O [Chrysophanol]', 9.36),
  ('O=C1c2cccc(O)c2C(=O)c2c(O)cc(CO)cc21 [Aloe-emodin, aloe-emodin]', 8.25),
  ('Cc1cc(O)c2c(c1)C(=O)c1cc(O)cc(O)c1C2=O [Emodin, emodin]', 205);

Shifting focus to the molecule that follows.
// query Requested field: Cmax. Item: COc1cc(O[C@@H]2O[C@H](CO)[C@@H](O)[C@H](O)[C@H]2O)c2c(c1)C(=O)c1cc(C)cc(O)c1C2=O [PG, physcion-8-O-β-D-glucoside]
// result 16.8

---

# METHOD: Tissue distribution of RPM constituents after oral RPM extract
# STUDY_CONDITIONS: both, Sprague-Dawley, rat, spleen, po, 18 g/kg, AUC0-t in spleen, rat tissue: spleen; 18 g/kg RPM extract p.o.; tissues collected at 5, 15, 60 min
Would you please tag the item T when its AUC(0-t) is 0.05 µM·h or above, and F when it is below?

Some solved entries appear below for comparison.
INSERT INTO measurements (molecule, assigned_category) VALUES
  ('OC[C@H]1O[C@@H](Oc2c(O)cc(O)cc2/C=C/c2ccc(O)cc2)[C@H](O)[C@@H](O)[C@@H]1O', 'T'),
  ('COc1cc(O[C@@H]2O[C@H](CO)[C@@H](O)[C@H](O)[C@H]2O)c2c(O)c(C(C)=O)c(C)cc2c1 [TG, torachrysone-8-O-glucoside]', 'T'),
  ('COc1cc(O[C@@H]2O[C@H](CO)[C@@H](O)[C@H](O)[C@H]2O)c2c(c1)C(=O)c1cc(C)cc(O)c1C2=O [PG, physcion-8-O-β-D-glucoside]', 'T');

Shift focus to the following entry.
// query Please tell me: is the molecule `COc1cc(O)cc2c1C(=O)c1c(O)cc(CO)cc1C2=O` at or over 0.05 µM·h in terms of AUC(0-t)?
// result F

---

Reported AUC(0-inf) values for a set of compounds
# METHOD: Plasma pharmacokinetics of RPM constituents after oral RPM extract
# STUDY_CONDITIONS: Sprague-Dawley, rat, plasma, po, 18 g/kg
Enter your answer as a number in µM·h; do not include the unit.

Examples with answers:
INSERT INTO measurements (compound, uom, test_result) VALUES
  ('Cc1cc(O)c2c(c1)C(=O)c1cc(O)cc(O)c1C2=O', 'µM·h', 2.91),
  ('COc1cc(O)cc2c1C(=O)c1c(O)cc(CO)cc1C2=O', 'µM·h', 0.0583),
  ('COc1cc(O[C@@H]2O[C@H](CO)[C@@H](O)[C@H](O)[C@H]2O)c2c(c1)C(=O)c1cc(C)cc(O)c1C2=O [PG, physcion-8-O-β-D-glucoside]', 'µM·h', 0.192),
  ('OC[C@H]1O[C@@H](Oc2c(O)cc(O)cc2/C=C/c2ccc(O)cc2)[C@H](O)[C@@H](O)[C@@H]1O', 'µM·h', 4.2),
  ('COc1cc(O[C@@H]2O[C@H](CO)[C@@H](O)[C@H](O)[C@H]2O)c2c(O)c(C(C)=O)c(C)cc2c1 [TG, torachrysone-8-O-glucoside]', 'µM·h', 0.0495);

We now examine a further compound.
// query Entry `O=C1c2cccc(O)c2C(=O)c2c(O)cc(CO)cc21` has what AUC(0-inf)?
// result 0.0324

---

# METHOD: Tissue distribution of RPM constituents after oral RPM extract
# STUDY_CONDITIONS: female, Sprague-Dawley, rat, ovary, po, 18 g/kg
MEASUREMENT_LABEL: AUC(0-t) (µM·h)
Give just the number in µM·h; leave the unit off.

INSERT INTO assay_data (structure_smiles, measurement_label, test_result) VALUES
  ('O=C1c2cccc(O)c2C(=O)c2c(O)cc(CO)cc21', 'AUC(0-t)', 0.00666);

Let us move to another entry and its AUC(0-t).
// query I'd like to know its AUC(0-t). The compound in question is `Cc1cc(O)c2c(c1)C(=O)c1cc(O)cc(O)c1C2=O`
// result 0.57

---

# METHOD: Excretion into urine and feces and mass balance after oral RPM extract
# STUDY_CONDITIONS: Sprague-Dawley, rat, urine and feces, po, recovery from the urine and feces, single p.o. RPM extract 18 g/kg, rats
// reported dose excreted per item
For clarity, give the value followed by its unit.

INSERT INTO assay_data (molecule, test_result) VALUES
  ('COc1cc(O[C@@H]2O[C@H](CO)[C@@H](O)[C@H](O)[C@H]2O)c2c(c1)C(=O)c1cc(C)cc(O)c1C2=O [PG, physcion-8-O-β-D-glucoside]', '16.4%');

Attention now shifts to the item below.
// query Entry under review: `COc1cc(O)cc2c1C(=O)c1c(O)cc(CO)cc1C2=O` . Reported dose excreted?
// result 4.12%

---

# METHOD: in vivo
# STUDY_CONDITIONS: male, Sprague-Dawley, rat, po, 18 g/kg, AUC0-t in testis
MEASUREMENT_LABEL: AUC(0-t) (µM·h)
Supply the numeric figure in µM·h, leaving out any unit text.

// query Quick check: AUC(0-t) of `O=C1c2cc(O)cc(O)c2C(=O)c2c(O)cc(CO)cc21` ?
// result 0.0137

---

# METHOD: Dose-exposure relationship (power function model with confidence interval method)
# STUDY_CONDITIONS: log C max vs log p.o. dose of RPM extract; critical interval 0.80–1.20
Entries and their Slope (90%CI) values follow.

The following compounds have reported results that may help.
INSERT INTO results (compound, test_result) VALUES
  ('O=C1c2cccc(O)c2C(=O)c2c(O)cc(CO)cc21 [Aloe-emodin, aloe-emodin]', '1.07 (0.795–1.35)'),
  ('Cc1cc(O)c2c(c1)C(=O)c1cc(O)cc(O)c1C2=O [Emodin, emodin]', '0.656 (0.554–0.758)'),
  ('OC[C@H]1O[C@@H](Oc2c(O)cc(O)cc2/C=C/c2ccc(O)cc2)[C@H](O)[C@@H](O)[C@@H]1O [TSG]', '0.536 (0.422–0.649)');

// query Entry COc1cc(O[C@@H]2O[C@H](CO)[C@@H](O)[C@H](O)[C@H]2O)c2c(O)c(C(C)=O)c(C)cc2c1 [TG, torachrysone-8-O-glucoside] : reported Slope (90%CI) = ?
// result 0.756 (0.627–0.884)

// query Recorded Slope (90%CI) for COc1cc(O[C@@H]2O[C@H](CO)[C@@H](O)[C@H](O)[C@H]2O)c2c(c1)C(=O)c1cc(C)cc(O)c1C2=O [PG, physcion-8-O-β-D-glucoside] , please?
// result 0.524 (0.396–0.652)

// query # input compound: COc1cc(O)cc2c1C(=O)c1c(O)cc(CO)cc1C2=O [Questinol, questinol] ; wanted: its Slope (90%CI)
// result 0.774 (0.610–0.938)

// query Requested field: Slope (90%CI). Item: O=C(O)c1cc(O)c2c(c1)C(=O)c1cccc(O)c1C2=O [Rhein, rhein]
// result 0.034 (-0.482–0.550)

---

# METHOD: Tissue distribution of RPM constituents after oral RPM extract
# STUDY_CONDITIONS: both, Sprague-Dawley, rat, lung, po, 18 g/kg
MEASUREMENT_LABEL: AUC(0-t) (µM·h)
Respond with the bare value in µM·h.

INSERT INTO measurements (structure_smiles, test_result) VALUES
  ('O=C1c2cccc(O)c2C(=O)c2c(O)cc(CO)cc21', 0.0313);

With those in mind, consider the next compound.
// query What AUC(0-t) value was documented for this compound, `Cc1cc(O)c2c(c1)C(=O)c1cc(O)cc(O)c1C2=O` ?
// result 7.11

---

Parameter: AUC(0-t). Scope: all listed entries.
# METHOD: Tissue distribution of RPM constituents after oral RPM extract
# STUDY_CONDITIONS: both, Sprague-Dawley, rat, spleen, po, 18 g/kg

INSERT INTO assay_data (structure_smiles, measurement_label, test_result) VALUES
  ('O=C1c2cccc(O)c2C(=O)c2c(O)cc(CO)cc21', 'AUC(0-t)', '0.0525 µM·h');

Please find the next compound below.
// query Entry `Cc1cc(O)c2c(c1)C(=O)c1cc(O)cc(O)c1C2=O` has what AUC(0-t)?
// result 19.1 µM·h
